Ref: PubChem BioAssay (NCI)

tested on: SF-295 CNS; experiment: NCI tumour cell line growth inhibition, 48 h

| Compound | TGI |
| --- | --- |
| O=C(O/N=C1/CCC/C1=C\c1ccccc1)c1ccccc1 | > 100 µM |
| CC1N(O)C(c2ccccc2)C(c2ccccc2)=[N+]1[O-] (stereo not given) | > 100 µM |
| C=C1[C@H](OCC(C)C)[C@@H](OCC(C)C)[C@@H](O)C(C)(C)/C=C/[C@H](C)C(=O)[C@@]2(O)C[C@H](C)[C@H](O)[C@@H]2[C@H]1OCC(C)C | > 7.5 µM |
| CC(=O)C1(c2ccccc2)CCCN(C)CC1 (stereo not given) | > 100 µM |
| c1cc2[se][se]c3c4cccc5[se][se]c(c(c1)c23)c54 | > 100 µM |

---

Listing of entries alongside the reported TGI.
test system: NCI/ADR-RES ovarian; experiment: NCI tumour cell line growth inhibition, 48 h
Quantity Name: TGI

| Compound | Result |
| --- | --- |
| C=CCNC(NCC=C)=C(C(Cl)=C(Cl)Cl)[N+](=O)[O-] | > 100 µM |
| CNC(=O)c1ccc(Nc2nc(OC3CCCC3)c3c(-c4ccc5nc(C)oc5c4)c[nH]c3n2)c(OC)c1 | > 100 µM |
| O=c1[nH]cnc2c1nnn2[C@@H]1O[C@H](CO)[C@@H](O)[C@H]1O | > 100 µM |
| CCC[C@H](Nc1nc(-c2ccc(NC(=O)NCC)c(OC)c2)ncc1C)c1cccnc1 | 9.97 µM |
| CC(=O)NC(Cc1c[nH]c2ccccc12)C(=O)O (stereo not given) | > 100 µM |
| COc1ccc(/C=c2/[nH]c(=O)/c(=C\c3ccc(OCc4ccccc4)cn3)[nH]c2=O)cc1 | > 100 µM |
| Cc1ccc(S(=O)(=O)Oc2coc(CO)cc2=O)cc1 | > 69.5 µM |
| O=c1c2cc([N+](=O)[O-])cnc2sn1-c1ccc(Oc2ccccc2)cc1 | > 100 µM |
| O=C1OC2(c3ccccc31)c1cc(I)c(O)c(I)c1Oc1c2cc(I)c(O)c1I | > 100 µM |
| N#C/C(=C\c1ccc(Cl)cc1)n1nnc2cc(F)c(F)cc21 | 7.7 µM |
| CC1=Cc2cc3[n-]c(cc4nc(cc5[n-]c(cc1n2)c(C)c5CCC(=O)O)C(CCC(=O)O)=C4C)cc3C.[Cu+2] | > 100 µM |
| N#CCc1[nH]nc2nc(SCc3ccccc3)nc(N3CCCCC3)c12 | 32.3 µM |
| O=C1NC(=O)[C@H]2C3C=CC([C@@H]12)[C@@H]1C(=O)NC(=O)[C@H]31 | > 100 µM |
| CC(=O)C1(c2ccccc2)CCCN(C)CC1 (stereo not given) | > 100 µM |
| COc1ccc(OC)c2sc(N3C(=O)/C(=C/c4ccccc4S)N=C3c3ccccc3)nc12 | > 100 µM |

---

# TGI per record follows
tested on: A549 NSCLC; assay: NCI tumour cell line growth inhibition, 48 h

| Molecule | Qualifying Sign | TGI / µM |
| --- | --- | --- |
| O=C1CS(=O)(=O)C(c2cccc(Oc3ccccc3)c2)N1c1cccc(Cl)c1Cl (stereo not given) | > | 100 |
| O=C1CN2CCC1C/C2=C\c1ccnc2c(Cl)cccc12 (stereo not given) | > | 100 |
| O=c1c2c([nH]c3nccn13)CCCC2 | > | 10 |
| C[C@]12CC[C@H]3[C@@H](CC=C4C[C@@H](O)CC[C@@]43C)[C@@H]1C/C(=C\c1cccc(OCCCn3ccnc3)c1)[C@@H]2O | = | 28.5 |
| Cc1c2c(cc3c1[nH]c1ccccc13)C(c1ccc(F)cc1)=NCC2 | = | 6.47 |
